molecules and their reported minimum inhibitory concentration (MIC)
Test system: STR[…] 930
Assay: In vitro antibacterial activity (agar dilution MIC)
Assay type: cell-based
Conditions: BHI agar, 35-37° C., 20 to 24 hours
Experimental: Representative compounds of the present invention were assayed in vitro for antibacterial activity as follows: Twelve petri dishes containing successive aqueous dilutions of the test compound mixed with 10 mL of sterilized Brain Heart Infusion (BHI) agar (Difco 0418-01-5) were prepared. Each plate was inoculated with 1:100 (or 1:10 for slow-growing strains, such as Micrococcus and Streptococcus) dilutions of up to 32 different microorganisms, using a Steers replicator block. […]
READOUT: minimum inhibitory concentration (MIC)

* C=CCO[C@]1(C)C[C@@H](C)C2=Nc3ccccc3N3C(=O)O[C@](C)([C@@H](CC)OC(=O)[C@H](C)C(=O)[C@H](C)[C@H]1O[C@@H]1O[C@H](C)C[C@H](N(C)C)[C@H]1O)[C@H]3[C@H]2C [Ex 8] | > 100
* CC[C@H]1OC(=O)[C@H](C)C(=O)[C@H](C)[C@@H](O[C@@H]2O[C@H](C)C[C@H](N(C)C)[C@H]2O)[C@](C)(OC)C[C@@H](C)C2=Nc3cc(OC)ccc3N3C(=O)O[C@@]1(C)[C@H]3[C@H]2C [Ex 5] | > 100
* CC[C@H]1OC(=O)[C@H](C)C(=O)[C@H](C)[C@@H](O[C@@H]2O[C@H](C)C[C@H](N(C)C)[C@H]2O)[C@](C)(OC)C[C@@H](C)C2=Nc3cccnc3N3C(=O)O[C@@]1(C)[C@H]3[C@H]2C [Ex 7] | > 100
